system tested: mAChR M1 (UniProt P11229)
assay overview: mAChR M1 cell-based functional assay (calcium mobilization, potentiation of EC20 acetylcholine response)
applied conditions: positive allosteric modulation of EC20 ACh response, mAChR M1 CHO-K1 cells; >10 μM estimated where no plateau
measured attribute: pEC50
One number for each entry, as −log10 of the molar value.

Query: # input compound: CN1CCc2cc(-c3ccc(CN4Cc5ncccc5C4=O)c(F)c3)ccc21 [Example B55] ; wanted: its pEC50
Response: 5.64

###

system tested: mAChR M1 (UniProt P11229)
assay overview: mAChR M1 cell-based functional assay (calcium mobilization, potentiation of EC20 acetylcholine response)
applied conditions: % ACh maximum at 30 μM; mAChR M1-expressing CHO-K1 cells, calcium flux
measured attribute: Emax (%)
Give bare numbers, in %.

compound="Cn1cc(-c2ccc(CN3Cc4ncccc4C3=O)c(F)c2)cn1 [Example B9]" units_label=% recorded_number=83
compound="O=C1c2cccnc2CN1Cc1ccc(-c2cncc(Cl)c2)cc1F [Example B31]" units_label=% recorded_number=35
compound="Cn1cc2cc(-c3cc(F)c(CN4Cc5ncccc5C4=O)cc3F)ccc2n1 [Example B105]" units_label=% recorded_number=69

Then this compound:
Query: # input compound: O=C1c2ncccc2CN1Cc1ccc(-c2ccncc2)cc1F [Example B65] ; wanted: its Emax (%)
Response: 56
